- test-method-notes: Neuroprotection against rotenone-induced toxicity in PC12 cells (MTT)
- applied-conditions: rat
metric-name: viability at 24 h, 1 μM (%)
Numeric only. Scale: %

Dear colleague, I am looking for the recorded viability at 24 h, 1 μM of the following compound: C=C(C)[C@H]1Cc2c(ccc3c2O[C@@H]2COc4cc(OC)c(OC)cc4[C@@H]2C3=O)O1 [rotenone, reference compound] 64.4
